# study-system: Amine oxidase [flavin-containing] A (Homo sapiens)
# Sequence (P21397 whole entry): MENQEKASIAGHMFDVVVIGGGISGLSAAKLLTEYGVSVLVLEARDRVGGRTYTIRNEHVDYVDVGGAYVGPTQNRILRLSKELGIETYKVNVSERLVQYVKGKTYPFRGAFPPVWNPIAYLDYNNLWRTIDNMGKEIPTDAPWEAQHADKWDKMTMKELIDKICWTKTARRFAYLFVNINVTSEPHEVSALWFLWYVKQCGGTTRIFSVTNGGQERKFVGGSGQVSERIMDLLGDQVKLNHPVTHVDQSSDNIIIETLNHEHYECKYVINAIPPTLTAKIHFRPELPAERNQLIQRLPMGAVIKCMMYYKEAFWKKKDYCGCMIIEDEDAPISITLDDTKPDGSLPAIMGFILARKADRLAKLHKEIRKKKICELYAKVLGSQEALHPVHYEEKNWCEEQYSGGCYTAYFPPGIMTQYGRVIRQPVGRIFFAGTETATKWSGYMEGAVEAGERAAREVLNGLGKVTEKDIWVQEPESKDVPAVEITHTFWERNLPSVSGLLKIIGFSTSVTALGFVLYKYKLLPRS
# protocol-summary: Inhibition of MAO-A (unknown origin) using MAO substrate incubated for 1 hr by MAO-Glo assay
pIC50: −log10 of the molar value.
recorded-endpoint: pIC50

Record summary for "O=C(N[C@@H](CCCCN[C@@H]1C[C@H]1c1ccccc1)C(=O)NCc1cccc(Cl)c1)c1ccc(-c2ccccc2)cc1" : reported pIC50 = < 4.00

----------
# protocol-summary: Inhibition of FIH (unknown origin) using ankyrin peptide substrate preincubated for 5 mins followed by substrate addition measured after 5 mins MALDI-TOF mass spectrometric analysis
# Set-up: species or system Homo sapiens
recorded-endpoint: IC50

// IC50 lookup, molecule = Cc1ccsc1C(NC(=O)c1ccccc1)c1cc(Cl)c2cccnc2c1O (racemic) , result: > 100 µM
